# System: Aβ42 secretion
# experiment: Primary in vitro screen, CHO-APP695NL,I,his cells, end-specific Aβ40 and Aβ42 ELISAs
# Type: cell-based, Chinese hamster
# experimental-conditions: Cricetulus griseus, 6 h; 10 μM; six-hour culture supernatants; read-out: % Control Aβ42
# Method: Aβ40 and Aβ42 levels in culture supernatants were determined for each time points using ELISA. In a primary screen, the effects of NSAIDs on Aβ42 secretion by a CHO cell line that expressed APP(CHO-APP695NL,I,his) were examined. Duplicate cell cultures were treated with (a) a vehicle, (b) 10 μM of NSAID, or (c) 100 μM of NSAID. […]
Kind request: treat 80% as inclusive, so activity at 10 µM at 80% or higher is yes (1), anything lower is no (0).

                                   molecule    group
0              Oc1ccc(C=Cc2cc(O)cc(O)c2)cc1  yes (1)
1  O=C(O)c1cc([N+](=O)[O-])ccc1NCCCc1ccccc1   no (0)
2  CS(=O)(=O)Nc1ccc([N+](=O)[O-])cc1OC1CCCCC1  yes (1)
3  Cc1cnc(NC(=O)C2=C(O)c3ccccc3S(=O)(=O)N2C)s1  yes (1)
4  O=C(c1ccccc1)c1ccc2n1CCC2C(=O)O (stereo not drawn)  yes (1)
